Each recorded value in this set is attributed to ChEMBL document CHEMBL1131364.

assay: In vitro inhibition of RPMI 8866 cell adhesion to human MAdCAM-1 IgG chimera.; format: cell-based
Numbered stars: 1 amine (or outer) side, 2 acyl side, 3 side chain; on linkers, the order of the positions; unused ones are H or OH. Peptide text beside a SMILES is read from it. * marks the point of attachment. CO = O=C([*:1])[*:2]; NHPh = c1ccc(N*)cc1
Please assign a class to every record based on measured IC50, with ranges low range: < 3 µM; mid range: ≥ 3 µM and < 5 µM; high range: ≥ 5 µM

Ask: Assign a category based on measured IC50 for `CC(C)C[C@H](NC(=O)c1coc2ccccc2c1=O)C(=O)N[C@@H](CC(=O)O)C(=O)N[C@H](C(N)=O)[C@H](C)O` and give only the class name.
Reply: mid range

Ask: Which class does `CC(C)C[C@H](NC(=O)c1cc2ccccc2o1)C(=O)N[C@@H](CC(=O)O)C(=O)N[C@H](C(=O)NCc1ccc2c(c1)OCO2)[C@@H](C)O` fall in?
Reply: mid range

Ask: # bin lookup: classify `COc1ccc(C(=O)N[C@@H](CC(C)C)C(=O)N[C@@H](CC(=O)O)C(=O)N[C@H](C(N)=O)[C@@H](C)O)cc1` by its IC50
Reply: high range

Ask: Kindly state the category for this molecule: `CC(C)C[C@H](NC(=O)c1cc2ccccc2cn1)C(=O)N[C@@H](CC(=O)O)C(=O)N[C@H](C(=O)NCc1ccncc1)[C@@H](C)O`
Reply: low range

Ask: Categorize the following entry: CC(C)C[C@H](NC(=O)c1coc2ccccc2c1=O)C(=O)N[C@@H](CC(=O)O)C(=O)NC(C(N)=O)C(O)c1ccccc1 (some centres not stated)
Reply: high range

Ask: Which of the defined bands does the recorded IC50 of `CC(C)C[C@H](NC(=O)c1cc2ccccc2o1)C(=O)N[C@@H](CC(=O)O)C(=O)N[C@H](C(=O)NCc1ccc(F)c(F)c1)[C@@H](C)O` sit within?
Reply: high range

Ask: State the class of the molecule shown: `CC(C)C[C@H](NC(=O)c1cc2ccccc2o1)C(=O)N[C@@H](CC(=O)O)C(=O)N[C@H](C(N)=O)[C@@H](C)O`
Reply: low range

Ask: Class for `COc1ccc(CCNC(=O)[C@@H](NC(=O)[C@H](CC(=O)O)NC(=O)[C@H](CC(C)C)NC(=O)c2cc3ccccc3cn2)[C@@H](C)O)cc1` ?
Reply: high range

Ask: Exam item: assign CC(C)C[C@H](NC(=O)c1ccccc1)C(=O)N[C@@H](CC(=O)O)C(=O)N[C@H](C(N)=O)[C@@H](C)O (HELM PEPTIDE1{[O=C(c1ccccc1)[*:2]].L.D.T.[am]}$$$$V2.0) to the correct category.
Reply: high range

Ask: Band assignment needed for CC(C)C[C@H](NC(=O)Nc1ccccc1)C(=O)N[C@@H](CC(=O)O)C(=O)N[C@H](C(N)=O)[C@@H](C)O ({NHPh-CO}-Leu-Asp-Thr-NH2) please.
Reply: high range

Ask: Please let me know in which category the item `CC(C)C[C@H](NC(=O)c1cc2ccccc2cn1)C(=O)N[C@@H](CC(=O)O)C(=O)N[C@H](C(N)=O)[C@@H](C)O` belongs.
Reply: mid range

---

experiment: In vitro inhibition of RPMI 8866 cell adhesion to human MAdCAM-1 IgG chimera.; assay type: cell-based
pIC50: −log10 of the molar value. Peptide text beside a SMILES is read from it.
Use label 1 when the recorded pIC50 is no lower than 5; use label 0 when it is lower.

Ask: Decide: pIC50 of `COc1ccc(CNC(=O)[C@@H](NC(=O)[C@H](CC(=O)O)NC(=O)[C@H](CC(C)C)NC(=O)c2cc3ccccc3cn2)[C@@H](C)O)cc1` >= 5?
Reply: label 1

Ask: Given `CC(C)C[C@H](NC(=O)c1cc2ccccc2cn1)C(=O)N[C@@H](CC(=O)O)C(=O)N[C@@H](C(N)=O)[C@@H](C)O` , state whether its pIC50 is at least 5.
Reply: label 1

Ask: Hi team, for CC(=O)N[C@@H](CC(C)C)C(=O)N[C@@H](CC(=O)O)C(=O)N[C@H](C(N)=O)[C@@H](C)O (Ac-Leu-Asp-Thr-NH2) , is the recorded pIC50 at or above 5?
Reply: label 0

Ask: Check this molecule for pIC50 at or above 5: `CC(C)C[C@H](NC(=O)c1coc2ccccc2c1=O)C(=O)N[C@@H](CC(=O)O)C(=O)N[C@H](C(N)=O)[C@@H](C)O`
Reply: label 1

Ask: Given `CC(C)C[C@H](NC(=O)c1cc2ccccc2cn1)C(=O)N[C@@H](CC(=O)O)C(=O)N[C@H](C(=O)NCc1ccc(F)cc1)[C@@H](C)O` , state whether its pIC50 is at least 5.
Reply: label 1

Ask: State whether the measured pIC50 reaches 5, counting equality as reaching it, for `CC(C)C[C@H](NS(=O)(=O)c1ccccc1)C(=O)N[C@@H](CC(=O)O)C(=O)N[C@H](C(N)=O)[C@@H](C)O`
Reply: label 0
